Target: Human HDAC5 (Homo sapiens)
Construct: full length with C-terminal His tag, MW=51.1 kDa; His (C); host or cells: baculovirus expression system
Sequence (Q9UQL6 656-1122 limits assumed): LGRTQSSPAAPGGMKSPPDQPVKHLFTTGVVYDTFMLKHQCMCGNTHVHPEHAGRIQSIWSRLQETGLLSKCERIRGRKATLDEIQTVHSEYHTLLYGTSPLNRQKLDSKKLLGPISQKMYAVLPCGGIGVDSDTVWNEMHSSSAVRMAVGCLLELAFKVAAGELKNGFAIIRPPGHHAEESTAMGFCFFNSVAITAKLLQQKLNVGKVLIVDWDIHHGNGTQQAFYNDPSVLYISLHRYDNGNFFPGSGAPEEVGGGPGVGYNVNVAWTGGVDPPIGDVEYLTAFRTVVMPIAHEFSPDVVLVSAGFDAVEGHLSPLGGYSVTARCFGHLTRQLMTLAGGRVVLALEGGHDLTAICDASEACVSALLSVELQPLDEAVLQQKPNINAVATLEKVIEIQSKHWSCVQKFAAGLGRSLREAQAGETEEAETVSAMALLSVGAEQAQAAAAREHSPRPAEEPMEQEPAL
Assay: HDAC5 biochemical assay, class IIa-specific substrate
Details: read-out: HDAC Isoform IC50 (nM) 5
property-measured: IC50

I am curious: what IC50 value has been reported for FC(F)(F)c1nc(-c2ccc(CN(c3cnccn3)c3ccc4ccncc4n3)s2)no1 ?
≤ 1000 nM

For Cc1nccnc1N(Cc1ccc(-c2noc(C(F)(F)F)n2)s1)c1cnccn1 then?
≤ 500 nM

Request: Cn1ccc2c(N(Cc3ccc(-c4noc(C(F)(F)F)n4)s3)c3cnccn3)ncnc21
≤ 10000 nM

Then what about the compound FC(F)(F)c1nc(-c2ccc(CN(c3ccccn3)c3cnccn3)s2)no1 ?
≤ 10000 nM

What do you get for CS(=O)(=O)c1cnc(N(Cc2ccc(-c3noc(C(F)(F)F)n3)s2)c2cnccn2)cn1 ?
≤ 1000 nM

How about Cc1ccnc(N(Cc2ccc(-c3noc(C(F)(F)F)n3)s2)c2cnccn2)n1 ?
≤ 10000 nM

What do you have for COc1cnc(N(Cc2ccc(-c3noc(C(F)(F)F)n3)s2)c2cnccn2)cn1 ?
≤ 10000 nM

Further, for O=C(c1cnnc(N(Cc2ccc(-c3noc(C(F)(F)F)n3)s2)c2cnccn2)c1)N1CC(C(F)(F)F)C1 ?
≤ 10000 nM

Try FC(F)(F)c1nc(-c2ccc(CN(c3cnccn3)c3ncccn3)s2)no1 next.
≤ 1000 nM

Let us now turn to O=C(c1ccc(N(Cc2ccc(-c3noc(C(F)(F)F)n3)s2)c2cnccn2)nn1)N1CCCCC1
≤ 500 nM

Cool, now O=C(c1cnnc(N(Cc2ccc(-c3noc(C(F)(F)F)n3)s2)c2cnccn2)c1)N1CCCC1
≤ 1000 nM
